Please respond with reported Th-T fluorescence, mean of three wells for every item in the list.
Molecular target: Aβ42 (Homo sapiens)
Sequence (P05067 672-713): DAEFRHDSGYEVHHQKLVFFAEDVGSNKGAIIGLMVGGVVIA
Test: Th-T (thioflavin-T) assay of Aβ42 aggregation
Format: biochemical
Details: Aβ42 aggregation time course, reading M131
Give bare numbers.

Known results for molecules:
molecule	observable	testResult
C=C1CCC2C(C)(CCC=C(C)C)C(O)CCC2(C)C1Cc1c(OC)oc(C)c(C)c1=O (stereo not drawn) [Compound 15, viridoxin A hydrolysate]	Th-T fluorescence, mean of three wells	3.327
C=C1CCC2C(C)(CCC=C(C)C)C(O)CCC2(C)C1Cc1c(O)c(C)c(C)oc1=O (stereo not drawn) [Compound 4]	Th-T fluorescence, mean of three wells	2.75
C=C1CC[C@H]2[C@]3(C)C[C@@H](C=C(C)C)O[C@H]3CC[C@]2(C)[C@@H]1Cc1c(O)c(C)c(C)oc1=O	Th-T fluorescence, mean of three wells	2.67
CC(C)=CCC/C(C)=C/CC/C(C)=C/CC/C(C)=C/Cc1c(O)c(C)c(C)oc1=O	Th-T fluorescence, mean of three wells	2.934
C=C1CC[C@H]2[C@]3(C)C[C@H](C=C(C)C)O[C@H]3CC[C@]2(C)[C@@H]1Cc1c(O)c(C)c(C)oc1=O	Th-T fluorescence, mean of three wells	3.032

Next:
Th-T fluorescence, mean of three wells measured on C=C1CCC2C(C)(CCC=C(C)C)C(O)CCC2(C)C1Cc1c(O)c(C)c(C)oc1=O (stereo not drawn) [Compound 9, higginsianin B] = 2.794
